Molecular target: Human HSP90 alpha (Homo sapiens, UniProt P07900)
Construct: His tag (inferred from purification on a HisPrep FF column); made in house; host or cells: E. coli BL21 codon plus (Stratagene)
Experiment: Assay for the activity of inhibiting HSP90 enzyme (ATPase, malachite green)
Assay type: biochemical
Details: purified human HSP90 alpha, 1 mM ATP added, 37° C. for two hours, OD655; read-out: Enzyme-inhibiting activity (IC50, μM) Human HSP90α
QUANTITY MEASURED: IC50 (µM)

Reference set, count: 3
>>> obs_value("COc1cc(C)c2cc1C(=O)N(C)CCCC(=O)NCCSc1cc-2nc(N)n1")
1.1
>>> obs_value("Cc1cc(C)c2cc1C(=O)NCC1(CNC(=O)CCSc3cc-2nc(N)n3)COC1")
2.2
>>> obs_value("Cc1cc(C)c2cc1C(=O)NCCCC(=O)N(C)CCSc1cc-2nc(N)n1")
2.5

a. Cc1cc(C)c2cc1C(=O)NCCOCCNC(=O)CCSc1cc-2nc(N)n1
b. COC(=O)[C@@H]1CCNC(=O)CCSc2cc(nc(N)n2)-c2cc(c(C)cc2C)C(=O)N1
c. Cc1cc(C)c2cc1C(=O)NCCCCCC(=O)NCCSc1cc-2nc(N)n1
d. Cc1cc(C)c2cc1C(=O)N[C@H](C(=O)N(C)C)CCNC(=O)CCSc1cc-2nc(N)n1
List from greatest to least IC50. Form field (ranking): labels in requested order.
d, b, a, c

I. Cc1cc(C)c2cc1C(=O)NCCC(NC(=O)C(F)(F)F)C(=O)NCCSc1cc-2nc(N)n1 (centres unmarked)
II. CCOc1cc(C)c2cc1C(=O)NCCCOc1cccc(c1)Sc1cc-2nc(N)n1
III. Cc1cc(C)c2cc1C(=O)NCC[C@@H](CN1CCOCC1)NC(=O)CCSc1cc-2nc(N)n1
List from greatest to least IC50. Form field (ranking): labels in requested order.
III, I, II

----------
Molecular target: Human HSP90 alpha (Homo sapiens, UniProt P07900)
Construct: His tag (inferred from purification on a HisPrep FF column); made in house; host or cells: E. coli BL21 codon plus (Stratagene)
Test: Assay for the activity of inhibiting HSP90 enzyme (ATPase, malachite green)
Assay type: biochemical
Settings: purified human HSP90 alpha, 1 mM ATP added, 37° C. for two hours, OD655; read-out: Enzyme-inhibiting activity (IC50, μM) Human HSP90α
QUANTITY MEASURED: IC50 (µM)

Reference set, count: 5
>>> obs_value("Cc1cc(C)c2cc1C(=O)NCCN(C)CCNC(=O)CCSc1cc-2nc(N)n1")
1.8
>>> obs_value("Cc1cc(C)c2cc1C(=O)NCCCN(CCN1CCOCC1)C(=O)CCSc1cc-2nc(N)n1")
0.7
>>> obs_value("Cc1cc(C)c2cc1C(=O)NCCC[C@@H](C(=O)NCCO)NC(=O)CCSc1cc-2nc(N)n1")
1.1
>>> obs_value("Cc1cc(C)c2cc1C(=O)NCCC[C@@H](C(=O)NCC(O)CO)NC(=O)CCSc1cc-2nc(N)n1 (stereo partly drawn)")
0.8
>>> obs_value("Nc1nc2cc(n1)-c1cc(c(Cl)cc1Cl)C(=O)NCCCC(=O)NCCS2")
1.6

a. Cc1cc(C)c2cc1C(=O)NCCC(=O)NCCSc1cc-2nc(N)n1
b. Nc1nc2nc(n1)-c1cc(c(Cl)cc1Cl)OCCCCOc1cccc(c1)S2
c. Nc1nc2nc(n1)-c1cc(c(Cl)cc1Cl)OCCOCCOc1cccc(c1)S2
d. Cc1cc(C)c2cc1C(=O)NC[C@@H](O)CNC(=O)CCSc1cc-2nc(N)n1
List from greatest to least IC50. Form field (ranking): labels in requested order.
b, c, a, d
(b: 3.3 µM, c: 2.1 µM, a: 1.3 µM, d: 0.8 µM)

1. Cc1cc(C)c2cc1C(=O)NCCC(N(C)C)C(=O)NCCSc1cc-2nc(N)n1 (stereo not drawn)
2. Cc1cc(C)c2cc1C(=O)N(C)CCCNC(=O)CCSc1cc-2nc(N)n1
Of 1 and 2 , which carries the smaller reported IC50 figure? Reply with the label of the item you choose.
2
(2: 1.6 µM, 1: 2.8 µM)

P. CNC(=O)[C@@H]1CCNC(=O)CCSc2cc(nc(N)n2)-c2cc(c(C)cc2C)C(=O)N1
Q. Nc1nc2cc(n1)-c1cc(c(Cl)cc1Cl)OCCCCOc1cccc(c1)S2
Of P and Q , which one carries the higher reported IC50? Reply with the label of the item you choose.
P
(P: 2.8 µM, Q: 1.8 µM)

I. Nc1nc2cc(n1)-c1cc(c(Cl)cc1Cl)C(=O)NCCCNC(=O)CCS2
II. Cc1cc(C)c2cc1C(=O)NCCCC(=O)N(CCN1CCOCC1)CCSc1cc-2nc(N)n1
Of I and II , which one carries the higher reported IC50? Reply with the label of the item you choose.
II

P. Cc1cc(C)c2cc1C(=O)NCCC(N)C(=O)NCCSc1cc-2nc(N)n1 (stereo not drawn)
Q. COc1cc(C)c2cc1C(=O)NCCCOc1cccc(c1)Sc1cc-2nc(N)n1
Of P and Q , which carries the smaller reported IC50 figure? Reply with the label of the item you choose.
Q
(Q: 1.6 µM, P: 2.3 µM)

Each recorded value in this set is attributed to patent US8362236B2.
